# maps each entry to its IC50
# tgt: JNK1 (Homo sapiens, UniProt P45983)
# Sequence (P45983 whole entry, species assumed): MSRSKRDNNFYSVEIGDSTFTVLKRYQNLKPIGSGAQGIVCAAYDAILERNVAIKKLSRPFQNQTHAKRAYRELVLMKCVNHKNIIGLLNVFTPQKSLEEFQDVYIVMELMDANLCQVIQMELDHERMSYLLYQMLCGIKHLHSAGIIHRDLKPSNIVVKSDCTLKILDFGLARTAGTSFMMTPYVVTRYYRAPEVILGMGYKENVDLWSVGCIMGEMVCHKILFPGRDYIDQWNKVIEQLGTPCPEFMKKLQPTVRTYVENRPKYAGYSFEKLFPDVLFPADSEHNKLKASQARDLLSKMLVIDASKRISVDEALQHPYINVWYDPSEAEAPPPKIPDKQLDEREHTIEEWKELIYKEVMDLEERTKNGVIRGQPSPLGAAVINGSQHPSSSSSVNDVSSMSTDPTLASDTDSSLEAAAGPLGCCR
# experiment_description: LanthaScreen TR-FRET in vitro kinase activity assay, JNK1 phosphorylation of ATF2
# Assay type: biochemical
# measurement_context: Table 2; read-out: IC50 (μM), Kinase Assay

>  <cpd_smiles>
CC(C)(C)OC(=O)NCCCCCNC(=O)c1ccc(-c2n[nH]c3ccccc23)cc1

>  <IC50>
2.3 µM

$$$$
>  <cpd_smiles>
CN1CCN(CCC(=O)NCCCCCNC(=O)c2ccc(-c3n[nH]c4ccccc34)cc2)CC1

>  <IC50>
4.5 µM

$$$$
>  <cpd_smiles>
COC(=O)c1ccc(-c2n[nH]c3ccccc23)cc1

>  <IC50>
9.7 µM

$$$$
>  <cpd_smiles>
COC(=O)CCCNC(=O)c1ccc(-c2n[nH]c3ccccc23)cc1

>  <IC50>
0.9 µM

$$$$
>  <cpd_smiles>
CC(C)(C)OC(=O)NCCCNC(=O)c1ccc(-c2n[nH]c3ccc(NC(=O)Cc4cccs4)cc23)cc1

>  <IC50>
1.2 µM

$$$$

Alright, here's another molecule for you.
Test system JNK1 (Homo sapiens, UniProt P45983); read-out IC50; what value for `NCCCNC(=O)c1ccc(-c2n[nH]c3ccc(NC(=O)Cc4cccs4)cc23)cc1` ?
1.9 µM

###

# tgt: JNK1 (Homo sapiens)
# experiment_description: LanthaScreen TR-FRET in vitro kinase activity assay, JNK1 phosphorylation of ATF2
# Format: biochemical
# measurement_context: JNK1, ATF2 substrate; read-out: Kinase Inhibition IC50
pIC50: −log10 of the molar value.
measured_metric: pIC50

pIC50 for Ac-RPTTLNL-OH [BI-77F10, Ac-RPTTLNL-OH] ?
< 4.30

###

# tgt: JNK1 (Homo sapiens, UniProt P45983)
# experiment_description: DELFIA assay: displacement of biotinylated pepJIP1 (L-JIP1 peptide) from GST-JNK1
# Type: binding
# measurement_context: Table 1; read-out: Delfia Assay (Displacement of L-JIP1 peptide from JNK) IC50
measured_metric: pIC50
pIC50 here is simply -log10 of the concentration when that concentration is written in mol/L.

Test system JNK1 (Homo sapiens, UniProt P45983); read-out pIC50; what value for `Ac-RPTTLNLGG-OH` ?
4.74

And what about the substance `RPKRPTTLNLF` ?
5.54

###

# tgt: JNK1 (Homo sapiens, UniProt P45983)
# experiment_description: LanthaScreen TR-FRET in vitro kinase activity assay, JNK1 phosphorylation of ATF2
# Assay type: biochemical
# measurement_context: Table 1; read-out: Kinase Activity Assay (JNK) IC50
# Experimental: LanthaScreen™ In vitro Kinase Assay. LanthaScreen™ assay platform from Invitrogen was utilized. The time-resolved fluorescence resonance energy transfer assay (TR-FRET) was performed in 384 well plates. Each well received JNK1 (100 ng/mL), ATF2 (200 nM), and ATP (1 μM) in 50 mM HEPES, 10 mM MgCl2, 1 mM EGTA and 0.01% Brij-35, pH 7.5 and test compounds. […] After an additional hour incubation, the signal was measured at 520/495 nm emission ratio on a BMG Pherastar fluorescence plate reader.
measured_metric: pIC50
pIC50 here is simply -log10 of the concentration when that concentration is written in mol/L.

pIC50 for `CC(C)(C)OC(=O)NCCCNC(=O)c1ccc(-c2n[nH]c3ccccc23)cc1` ?
5.46
